method.description: Growth inhibition of mouse J774 cells at 128 uM after 24 hrs by resazurin reduction assay
Assay type: cell-based
measurement.setup: read-out: GI
property.name: inhibition at 24 h, 128 µM

Name the reported inhibition at 24 h, 128 µM value associated with the compound `Cn1c2ccc([N+](=O)[O-])cc2c(=O)n1CCc1ccccc1`
0%

Entry `COc1c2cc([N+](=O)[O-])ccc2nn1Cc1ccccc1` has what inhibition at 24 h, 128 µM?
0%

# inhibition at 24 h, 128 µM lookup, item `Cn1c2ccc([N+](=O)[O-])cc2c(=O)n1Cc1ccc2ccccc2c1`
0%

So what does the record say about inhibition at 24 h, 128 µM for `Cn1c(=O)c2cc([N+](=O)[O-])ccc2n1Cc1ccccc1` ?
6.91%

Entry under review: `Cn1nc2ccc([N+](=O)[O-])cc2c1OCc1ccccc1` . Reported inhibition at 24 h, 128 µM?
1.39%

Endpoint output: inhibition at 24 h, 128 µM of `CCCn1c2ccc([N+](=O)[O-])cc2c(=O)n1-c1ccccc1` . Value?
0%

Give its inhibition at 24 h, 128 µM value. Item: `Cn1c2ccc([N+](=O)[O-])cc2c(=O)n1-c1ccccc1`
9.95%

Consider the compound `CCCn1c2ccc([N+](=O)[O-])cc2c(=O)n1C` and give its measured inhibition at 24 h, 128 µM.
0%

Endpoint output: inhibition at 24 h, 128 µM of `CC(C)n1c2ccc([N+](=O)[O-])cc2c(=O)n1-c1ccccc1` . Value?
0%

Quick one: inhibition at 24 h, 128 µM of `CC(C)n1c2ccc([N+](=O)[O-])cc2c(=O)n1C` ?
0%

Give its inhibition at 24 h, 128 µM value. Item: `Cn1nc(OCCc2ccccc2)c2cc([N+](=O)[O-])ccc21`
2.99%

What does the record list as inhibition at 24 h, 128 µM for CC1CS(=O)(=O)CCN1/N=C/c1ccc([N+](=O)[O-])o1 (stereo not drawn) [NIFURTIMOX] ?
5%

Value lookup for inhibition at 24 h, 128 µM; key = `CC(C)n1c2ccc([N+](=O)[O-])cc2c(=O)n1Cc1ccc2ccccc2c1`
0%

Fill in the blank: the reported inhibition at 24 h, 128 µM of `CCCn1c2ccc([N+](=O)[O-])cc2c(=O)n1Cc1ccc2ccccc2c1` is ____.
11.9%

Find the recorded inhibition at 24 h, 128 µM belonging to `CCCCn1c2ccc([N+](=O)[O-])cc2c(=O)n1Cc1ccccc1` and report it.
67.5%

Can you share its inhibition at 24 h, 128 µM? I mean this compound: `CCCn1c2ccc([N+](=O)[O-])cc2c(=O)n1Cc1ccccc1`
0%

# inhibition at 24 h, 128 µM lookup, item `COc1c2cc([N+](=O)[O-])ccc2nn1C`
6.57%

GET /values?readout=inhibition at 24 h, 128 µM&item= O=C(Cn1ccnc1[N+](=O)[O-])NCc1ccccc1 [BENZNIDAZOLE]
14.8%

Item `CCCCCOc1c2cc([N+](=O)[O-])ccc2nn1Cc1ccccc1` has what recorded inhibition at 24 h, 128 µM?
0%

What does the data say about its inhibition at 24 h, 128 µM? Entry: `CCCOc1c2cc([N+](=O)[O-])ccc2nn1Cc1ccc2ccccc2c1`
28.5%

I have this compound here, `O=c1c2cc([N+](=O)[O-])ccc2n(Cc2ccccc2)n1Cc1ccccc1` , and I need its recorded inhibition at 24 h, 128 µM.
64%

Recorded inhibition at 24 h, 128 µM of `Cn1nc(OCc2ccc3ccccc3c2)c2cc([N+](=O)[O-])ccc21` , please.
9%

Need inhibition at 24 h, 128 µM, item `Cn1c(=O)c2cc([N+](=O)[O-])ccc2n1C`
0%

* * *

method.description: Growth inhibition of mouse J774 cells at 1 uM after 24 hrs by resazurin reduction assay
Assay type: cell-based
measurement.setup: read-out: GI
property.name: inhibition at 24 h, 1 µM (%)
# value in %; strip the unit string

If you can, please state the reported inhibition at 24 h, 1 µM value of `CC(C)n1c2ccc([N+](=O)[O-])cc2c(=O)n1Cc1ccccc1` .
5.87

* * *

So I've got a bunch of compounds here, and I need their inhibition at 24 h, 5 µM values.
method.description: Growth inhibition of mouse J774 cells at 5 uM after 24 hrs by resazurin reduction assay
Type: cell-based
measurement.setup: read-out: GI
Record the value in %, omitting the unit from your answer.

If you can, please state the reported inhibition at 24 h, 5 µM value of `CCCCn1c2ccc([N+](=O)[O-])cc2c(=O)n1Cc1ccccc1` .
2.36

// returns reported inhibition at 24 h, 5 µM for input `CCCn1c2ccc([N+](=O)[O-])cc2c(=O)n1Cc1ccccc1`
0.64

* * *

method.description: Growth inhibition of mouse J774 cells at 4 uM after 24 hrs by resazurin reduction assay
Type: cell-based
measurement.setup: read-out: GI
property.name: inhibition at 24 h, 4 µM (%)
// note: answer is a bare numeric in %

Which inhibition at 24 h, 4 µM value belongs to `CC(C)n1c2ccc([N+](=O)[O-])cc2c(=O)n1Cc1ccccc1` ?
65.2

* * *

method.description: Growth inhibition of mouse J774 cells at 2.5 uM after 24 hrs by resazurin reduction assay
Assay type: cell-based
measurement.setup: read-out: GI
property.name: inhibition at 24 h, 2.5 µM (%)
Respond with the bare value in %.

For the compound shown here, `CCCCn1c2ccc([N+](=O)[O-])cc2c(=O)n1Cc1ccccc1` , give the reported inhibition at 24 h, 2.5 µM.
1.92

Fill blank: measured inhibition at 24 h, 2.5 µM of the compound `CCCn1c2ccc([N+](=O)[O-])cc2c(=O)n1Cc1ccccc1` is ____.
0.85

* * *

Answer each item with its documented inhibition at 24 h, 64 µM.
method.description: Growth inhibition of mouse J774 cells at 64 uM after 24 hrs by resazurin reduction assay
Assay type: cell-based
measurement.setup: read-out: GI
The reply should contain only the number, in %.

Which measured inhibition at 24 h, 64 µM value corresponds to `CCCn1c2ccc([N+](=O)[O-])cc2c(=O)n1Cc1ccc2ccccc2c1` ?
0

Query: inhibition at 24 h, 64 µM; subject: `CCCCCOc1c2cc([N+](=O)[O-])ccc2nn1Cc1ccccc1`
0

Reported inhibition at 24 h, 64 µM, compound `CC(C)Oc1c2cc([N+](=O)[O-])ccc2nn1C` : ____
6.34

Form field: reported inhibition at 24 h, 64 µM of `Cn1c2ccc([N+](=O)[O-])cc2c(=O)n1CCc1ccccc1`
0

Reported inhibition at 24 h, 64 µM, compound `O=C(Cn1ccnc1[N+](=O)[O-])NCc1ccccc1` : ____
13

What value of measured inhibition at 24 h, 64 µM is listed for `CC(C)Oc1c2cc([N+](=O)[O-])ccc2nn1Cc1ccc2ccccc2c1` ?
26.5

Consider the compound `Cn1nc(OCCc2ccccc2)c2cc([N+](=O)[O-])ccc21` and give its measured inhibition at 24 h, 64 µM.
0

* * *

method.description: Growth inhibition of mouse J774 cells at 128 uM after 24 hrs by resazurin reduction assay
Format: cell-based
measurement.setup: read-out: GI
For each entry below, report its inhibition at 24 h, 128 µM value.

Any idea what its inhibition at 24 h, 128 µM is? The compound is `Cn1c2ccc([N+](=O)[O-])cc2c(=O)n1Cc1ccccc1`
29%

Entry `CCCOc1c2cc([N+](=O)[O-])ccc2nn1C` has what inhibition at 24 h, 128 µM?
35.3%

Fill blank: measured inhibition at 24 h, 128 µM of the compound `CCCCCn1c2ccc([N+](=O)[O-])cc2c(=O)n1Cc1ccccc1` is ____.
71.8%

Query (compound): `O=[N+]([O-])c1ccc2nn(Cc3ccccc3)c(OCc3ccccc3)c2c1` ; field requested: inhibition at 24 h, 128 µM
15.2%

Please look up its inhibition at 24 h, 128 µM: `CC(C)Oc1c2cc([N+](=O)[O-])ccc2nn1C`
19.2%

Fill in the blank: the reported inhibition at 24 h, 128 µM of `CCCOc1c2cc([N+](=O)[O-])ccc2nn1Cc1ccccc1` is ____.
0%

inhibition at 24 h, 128 µM lookup needed for `CC(C)n1c2ccc([N+](=O)[O-])cc2c(=O)n1Cc1ccccc1` , thanks.
0%

* * *

method.description: Growth inhibition of mouse J774 cells at 256 uM after 24 hrs by resazurin reduction assay
Assay type: cell-based
measurement.setup: read-out: GI
Record form. Attribute: inhibition at 24 h, 256 µM. Fill in for each entry.
Answer format: numeric, % implied, no suffix.

Look up inhibition at 24 h, 256 µM for this molecule: `CC(C)n1c2ccc([N+](=O)[O-])cc2c(=O)n1C`
0

Recorded inhibition at 24 h, 256 µM for `Cn1c2ccc([N+](=O)[O-])cc2c(=O)n1CCc1ccccc1` , please?
0

// returns reported inhibition at 24 h, 256 µM for input `CCCCOc1c2cc([N+](=O)[O-])ccc2nn1Cc1ccccc1`
26.3

What value of inhibition at 24 h, 256 µM has been recorded for this entry: `CCCn1c2ccc([N+](=O)[O-])cc2c(=O)n1C`
0

Which inhibition at 24 h, 256 µM value is on record for CC1CS(=O)(=O)CCN1/N=C/c1ccc([N+](=O)[O-])o1 (stereo not drawn) ?
25

Can you look up the measured inhibition at 24 h, 256 µM of `CCCOc1c2cc([N+](=O)[O-])ccc2nn1C` for me?
62.4

For the molecule shown here, `CC(C)Oc1c2cc([N+](=O)[O-])ccc2nn1C` , give the reported inhibition at 24 h, 256 µM.
20

Looking for the measured inhibition at 24 h, 256 µM of `Cn1c(=O)c2cc([N+](=O)[O-])ccc2n1-c1ccccc1` , can you help?
43.1

Quick one: inhibition at 24 h, 256 µM of `CCCCCOc1c2cc([N+](=O)[O-])ccc2nn1Cc1ccccc1` ?
0

Request the reported inhibition at 24 h, 256 µM associated with `CCCCCn1c2ccc([N+](=O)[O-])cc2c(=O)n1Cc1ccccc1`
81

Look up inhibition at 24 h, 256 µM for this molecule: `COc1c2cc([N+](=O)[O-])ccc2nn1Cc1ccccc1`
6.83

// inhibition at 24 h, 256 µM lookup, key: `CC(C)n1c2ccc([N+](=O)[O-])cc2c(=O)n1-c1ccccc1`
16.8

Using the record for `Cn1c2ccc([N+](=O)[O-])cc2c(=O)n1Cc1ccc2ccccc2c1` , report its inhibition at 24 h, 256 µM.
0

Entry `CC(C)n1c2ccc([N+](=O)[O-])cc2c(=O)n1Cc1ccc2ccccc2c1` : reported inhibition at 24 h, 256 µM = ?
0

Which inhibition at 24 h, 256 µM is listed for `Cn1nc(OCCc2ccccc2)c2cc([N+](=O)[O-])ccc21` ?
0

Tell me the measured inhibition at 24 h, 256 µM of `Cn1c(=O)c2cc([N+](=O)[O-])ccc2n1Cc1ccccc1` , please.
6.33

Which inhibition at 24 h, 256 µM is reported for this molecule? `Cn1c2ccc([N+](=O)[O-])cc2c(=O)n1Cc1ccccc1`
0

Returns the measured inhibition at 24 h, 256 µM for the input molecule. Input: `Cn1c(=O)c2cc([N+](=O)[O-])ccc2n1C`
0

Look up inhibition at 24 h, 256 µM for this molecule: `O=C(Cn1ccnc1[N+](=O)[O-])NCc1ccccc1`
13

# input molecule: `CCCOc1c2cc([N+](=O)[O-])ccc2nn1Cc1ccc2ccccc2c1` ; wanted: its inhibition at 24 h, 256 µM
0

Find the recorded inhibition at 24 h, 256 µM belonging to `CC(C)Oc1c2cc([N+](=O)[O-])ccc2nn1Cc1ccccc1` and report it.
41.4

Using the record for `CC(C)n1c2ccc([N+](=O)[O-])cc2c(=O)n1Cc1ccccc1` , report its inhibition at 24 h, 256 µM.
0

Name the recorded inhibition at 24 h, 256 µM for `Cn1c2ccc([N+](=O)[O-])cc2c(=O)n1-c1ccccc1` .
20.7

Just for reference, ChEMBL document CHEMBL2150935 is where these values come from.
